systemName: T1, Human Id1: Histidine (human, UniProt P41134 1-155, limits assumed)
T1 construct: Fusion protein made in E. coli from vector pGW07; also called h-Id1: his; not shown: His tag
T1 sequence (looked up): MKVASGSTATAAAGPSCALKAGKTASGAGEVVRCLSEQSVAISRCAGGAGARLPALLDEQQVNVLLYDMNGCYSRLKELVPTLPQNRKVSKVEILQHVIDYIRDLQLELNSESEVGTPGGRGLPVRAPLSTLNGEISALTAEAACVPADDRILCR
testDescription: ELISA, Ab 0.000 µg/ml (blank)
List of A450 values.
# value in A450; strip the unit string

# binder, experimentalValue
rows = [
    ("rabbit monoclonal anti-human Id3, clone #BCH-4/#3-3 (antibody, V domains shown, Rabbit IgG from a rabbit hybridoma; also called h Id3 MoAb 3-3) VH: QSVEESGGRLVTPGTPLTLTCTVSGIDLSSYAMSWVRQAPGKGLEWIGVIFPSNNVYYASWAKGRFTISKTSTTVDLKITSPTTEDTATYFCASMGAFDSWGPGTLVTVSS VL: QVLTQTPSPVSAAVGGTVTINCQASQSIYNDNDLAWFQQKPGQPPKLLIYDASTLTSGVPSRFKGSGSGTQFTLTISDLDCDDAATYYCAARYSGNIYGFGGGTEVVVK", 0.046),
]

Could you now consider this next binder?
The binder identified as rabbit monoclonal anti-mouse/human Id3, clone #BCH-4/#16-1 (antibody, V domains shown, Rabbit IgG from a rabbit hybridoma; also called m/h Id3 MoAb 16-1) VH: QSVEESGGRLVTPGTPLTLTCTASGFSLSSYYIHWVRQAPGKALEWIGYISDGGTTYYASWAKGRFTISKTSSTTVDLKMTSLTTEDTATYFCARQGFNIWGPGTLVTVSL VL: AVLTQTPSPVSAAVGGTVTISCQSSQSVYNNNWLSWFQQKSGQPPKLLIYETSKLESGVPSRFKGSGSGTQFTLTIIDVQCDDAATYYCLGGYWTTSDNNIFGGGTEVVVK registered its A450 at 0.043
